Please respond with reported Affinity ratio (α3β4/α4β2) for every item in the list.
Target: α4β2 nAChR (Rattus norvegicus, UniProt P09483+P12390)
Construct: expressed in transfected cells
Assay: Competition binding with [3H]epibatidine, membrane homogenates of stably transfected cells
Conditions: Ki α3β4 divided by Ki α4β2
The response must contain the number and no unit.

Entry Cc1cc2n(c(=O)c1)CC1CNCC2C1 (racemic) : reported Affinity ratio (α3β4/α4β2) = ?
3526

Please answer likewise for O=c1c(-c2ccc(F)cc2)ccc2n1CC1CNCC2C1 (single isomer, unassigned; (-)) [(−)-21a]
157

Similarly, Cc1ccc(-c2ccc3n(c2=O)CC2CNCC3C2)s1 (single isomer, unassigned; (-)) [(−)-21c] ?
59

Also check O=c1cccc2n1C[C@@H]1CNC[C@H]2C1 [(−)-Cytisine (4), (−)-Cytisine]
144

Same thing, different compound: COC(=O)[C@H]1C2CNCC(C2)c2cccc(=O)n21 (single isomer, unassigned; (-)) [(−)-22]
13

Next entry: CCCCc1ccc(-c2ccc3n(c2=O)CC2CNCC3C2)cc1 (single isomer, unassigned; (-)) [(−)-21b]
17

Check CCC(=O)[C@H]1C2CNCC(C2)c2cccc(=O)n21 (single isomer, unassigned; (-)) [(−)-23] too.
18

And what about the compound O=c1cc(CO)cc2n1CC1CNCC2C1 (racemic) [rac-17a] ?
909

The origin of these recorded values is patent US20100048606A1.
